# Tested on: MOLT-4 leukemia
# procedure.details: NCI-60 one-dose screen, 48 h
# cond: 10 µM unless noted
Compounds without any hit were thinned out: in the full panel of roughly 83,000, 20% have a hit. Active and inactive are the calls of the source. Rule for the calls: active = growth percent below 10; inactive = the rest.
Parameter call: string, one of active, inactive

// known answers, use as guide
Cc1ccc(-c2cc(-c3cccc4ccccc34)n3c(n2)nc2ccccc23)cc1 active
Cc1ccc(NC(=O)c2ccc(CN3CCN(C)CC3)c(C(F)(F)F)c2)cc1Oc1ccc(-c2[nH]nc3ncnc(N)c23)cc1 inactive
O=C1[C@H]2Cc3c([nH]c4ccccc34)[C@H](c3ccc(Cl)cc3)N2C(=O)CN1C1CCN(Cc2c(Cl)cccc2Cl)CC1 inactive

In this assay, the call recorded for `CN1C(=O)/C(=C/C=C/c2ccco2)SC1=S` was what?
inactive

In this assay, the call recorded for `COc1cc2oc(-c3cccc(NC(=O)c4cc(NC(=O)[C@H](C)N)ccc4Cl)c3)cc(=O)c2c(OC)c1OC` was what?
inactive
